As an illustration, consider measured Kd for compounds on NOD2 in native membrane vesicles (Homo sapiens, UniProt Q9HC29).
Sequence (Q9HC29 whole entry): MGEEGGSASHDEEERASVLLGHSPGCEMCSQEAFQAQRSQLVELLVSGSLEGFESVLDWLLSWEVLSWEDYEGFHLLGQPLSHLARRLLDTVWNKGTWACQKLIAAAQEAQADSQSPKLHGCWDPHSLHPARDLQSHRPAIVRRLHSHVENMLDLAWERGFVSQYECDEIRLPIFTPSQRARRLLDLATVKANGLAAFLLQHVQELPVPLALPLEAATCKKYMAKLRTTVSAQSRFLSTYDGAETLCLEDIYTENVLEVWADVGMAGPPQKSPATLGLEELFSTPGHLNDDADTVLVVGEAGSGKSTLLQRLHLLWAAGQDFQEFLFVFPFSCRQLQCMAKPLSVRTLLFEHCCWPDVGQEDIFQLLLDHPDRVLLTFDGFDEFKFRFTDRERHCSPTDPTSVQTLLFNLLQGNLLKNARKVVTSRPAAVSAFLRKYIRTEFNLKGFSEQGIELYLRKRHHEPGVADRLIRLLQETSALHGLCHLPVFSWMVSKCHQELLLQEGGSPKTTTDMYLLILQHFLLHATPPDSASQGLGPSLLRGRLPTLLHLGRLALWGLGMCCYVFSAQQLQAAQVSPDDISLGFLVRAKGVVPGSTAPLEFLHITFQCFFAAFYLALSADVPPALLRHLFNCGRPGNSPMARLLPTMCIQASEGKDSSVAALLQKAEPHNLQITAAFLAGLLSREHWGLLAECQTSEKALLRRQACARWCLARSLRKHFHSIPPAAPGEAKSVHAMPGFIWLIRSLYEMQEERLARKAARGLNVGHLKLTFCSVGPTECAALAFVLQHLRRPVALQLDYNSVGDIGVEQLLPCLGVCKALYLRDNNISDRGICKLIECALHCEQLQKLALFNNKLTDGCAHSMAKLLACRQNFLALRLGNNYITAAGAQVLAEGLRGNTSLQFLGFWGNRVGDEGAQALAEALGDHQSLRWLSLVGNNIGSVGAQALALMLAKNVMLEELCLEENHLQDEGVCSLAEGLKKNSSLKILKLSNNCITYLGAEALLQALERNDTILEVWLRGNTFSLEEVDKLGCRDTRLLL

Some compounds with known Kd results, for comparison:
COC(=O)[C@@H](C)O[C@H]1[C@H](O)[C@@H](CN)O[C@H](O)[C@@H]1NC(C)=O [ligand 20]: 0.05 to 0.2 µM
CC(=O)N[C@@H]1[C@@H](O[C@H](C)C(=O)N[C@@H](C)C(=O)N[C@@H](CCC(=O)O)C(N)=O)[C@H](O)[C@@H](CN)O[C@@H]1O [ligand 3, 6-amino-MDP-(LL)]: 0.003 to 0.03 µM
CC(=O)N[C@@H]1[C@@H](O[C@H](C)C(=O)N[C@@H](C)C(=O)N[C@H](CCC(=O)O)C(N)=O)[C@H](O)[C@@H](CN)O[C@@H]1O [ligand 2, 6-amino-MDP-(LD)]: 0.003 to 0.03 µM

Lab note: next compound to report on.
Prompt: Find the recorded Kd belonging to COC(=O)[C@H](C)NC(=O)[C@@H](C)O[C@H]1[C@H](O)[C@@H](CN)O[C@H](O)[C@@H]1NC(C)=O [ligand 19] and report it.
Completion: 0.003 to 0.03 µM

* * *

targetEntity: NOD2 in native membrane vesicles (Homo sapiens, UniProt Q9HC29)
Format: binding
statedConditions: BSI, NOD2 in native membrane vesicles
quantityName: relative binding strength

Some compounds with known relative binding strength results, for comparison:
CC(=O)N[C@@H]1[C@@H](O[C@H](C)C(=O)N[C@@H](C)C(=O)O)[C@H](O)[C@@H](CN)O[C@@H]1O [ligand 18]: strong
CC(=O)N[C@@H]1[C@@H](O[C@H](C)C(=O)N[C@@H](C)C(=O)N[C@@H](CCC(=O)O)C(N)=O)[C@H](O)[C@@H](CN)O[C@@H]1O [ligand 3, 6-amino-MDP-(LL)]: strong
CC(=O)N[C@@H]1[C@@H](O[C@H](C)C(=O)N[C@@H](C)C(=O)N[C@H](CCC(=O)O)C(N)=O)[C@H](O)[C@@H](CN)O[C@@H]1O [ligand 2, 6-amino-MDP-(LD)]: strong
COC(=O)[C@H](C)NC(=O)[C@@H](C)O[C@H]1[C@H](O)[C@@H](CN)O[C@H](O)[C@@H]1NC(C)=O [ligand 19]: strong

Prompt: Find the recorded relative binding strength belonging to COC(=O)[C@@H](C)O[C@H]1[C@H](O)[C@@H](CN)O[C@H](O)[C@@H]1NC(C)=O [ligand 20] and report it.
Completion: weak

* * *

targetEntity: purified WT NOD2 (Homo sapiens)
assayNotes: SPR binding assay, surface-tethered ligands and purified WT NOD2
quantityName: Kd

Some compounds with known Kd results, for comparison:
COC(=O)[C@H](C)NC(=O)[C@@H](C)O[C@H]1[C@H](O)[C@@H](CN)O[C@H](O)[C@@H]1NC(C)=O: 16 to 30 nM
COC(=O)[C@@H](C)O[C@H]1[C@H](O)[C@@H](CN)O[C@H](O)[C@@H]1NC(C)=O: 12 to 24 nM
CC(=O)N[C@@H]1[C@@H](O[C@H](C)C(=O)N[C@@H](C)C(=O)N[C@H](CCC(=O)O)C(N)=O)[C@H](O)[C@@H](CN)O[C@@H]1O: 4 to 10 nM

Prompt: Find the recorded Kd belonging to CC(=O)N[C@@H]1[C@@H](O[C@H](C)C(=O)N[C@@H](C)C(=O)N[C@@H](CCC(=O)O)C(N)=O)[C@H](O)[C@@H](CN)O[C@@H]1O and report it.
Completion: 10 to 18 nM

Prompt: Find the recorded Kd belonging to CC(=O)N[C@@H]1[C@@H](O[C@H](C)C(=O)N[C@@H](C)C(=O)O)[C@H](O)[C@@H](CN)O[C@@H]1O and report it.
Completion: 24 to 36 nM

* * *

Catalogue of Kd values
targetEntity: UniProt Q9HC29
assayNotes: Backscattering interferometry
Type: binding

Some compounds with known Kd results, for comparison:
CC(=O)N[C@@H]1[C@@H](O[C@H](C)C(=O)N[C@@H](C)C(=O)N[C@@H](CCC(=O)O)C(N)=O)[C@H](O)[C@@H](CN)O[C@@H]1O: 1 to 6 nM
CC(=O)N[C@@H]1[C@@H](O[C@H](C)C(=O)N[C@@H](C)C(=O)N[C@H](CCC(=O)O)C(N)=O)[C@H](O)[C@@H](CN)O[C@@H]1O: 2 to 10 nM

Prompt: Find the recorded Kd belonging to CC(=O)N[C@@H]1[C@@H](O[C@H](C)C(=O)N[C@@H](C)C(=O)O)[C@H](O)[C@@H](CN)O[C@@H]1O and report it.
Completion: 15 to 30 nM

Prompt: Find the recorded Kd belonging to COC(=O)[C@@H](C)O[C@H]1[C@H](O)[C@@H](CN)O[C@H](O)[C@@H]1NC(C)=O and report it.
Completion: 2 to 10 nM

Prompt: Find the recorded Kd belonging to COC(=O)[C@H](C)NC(=O)[C@@H](C)O[C@H]1[C@H](O)[C@@H](CN)O[C@H](O)[C@@H]1NC(C)=O and report it.
Completion: 8 to 20 nM
